Test: Inhibition of PBP3 in Pseudomonas aeruginosa ATCC 27853 after 20 mins by fluorescence assay
MEASURED_METRIC: pIC50
# pIC50 = -log10(concentration in molar units)

CC(C)(O/N=C(\C(=O)N[C@@H]1C(=O)N(S(=O)(=O)O)[C@@H]1CNC(=O)NCc1cc(=O)c(O)cn1O)c1csc(N)n1)C(=O)NO | 6.57
Nc1nc(/C(=N/OC2(C(=O)O)CCC2)C(=O)N[C@@H]2C(=O)N(S(=O)(=O)O)[C@@H]2CNC(=O)NCc2cc(=O)c(O)cn2O)cs1 | 7.18
CC(C)(O/N=C(\C(=O)N[C@@H]1C(=O)N(S(=O)(=O)O)[C@@H]1CNC(=O)c1cc(=O)c(O)cn1-c1ccccc1)c1csc(N)n1)C(=O)O | 6.85
CC(C)(O/N=C(\C(=O)N[C@@H]1C(=O)N(S(=O)(=O)O)[C@@H]1CNC(=O)NCc1cc(=O)c(O)cn1O)c1csc(N)n1)C(=O)O | 7.27
C[C@H]1[C@H](NC(=O)/C(=N\OC(C)(C)C(=O)O)c2csc(N)n2)C(=O)N1S(=O)(=O)O | 8.10

Note: attention shifts to another entry.
For the compound CC(C)(O/N=C(\C(=O)N[C@@H]1C(=O)N(S(=O)(=O)[O-])[C@@H]1CNC(=O)c1cc(-c2cc(=O)c(O)cn2O)no1)c1csc(N)n1)C(=O)[O-].[Na+].[Na+] , what pIC50 is on record?
8.22

----------
Assay: Inhibition of PBP1b in Pseudomonas aeruginosa ATCC 27853 after 20 mins by fluorescence assay
IC50 by entry:
Kindly provide the numeric value in µM only, without the unit symbol.

For the compound CC(C)(O/N=C(\C(=O)N[C@@H]1C(=O)N(S(=O)(=O)O)[C@@H]1CNC(=O)NCc1cc(=O)c(O)cn1O)c1csc(N)n1)C(=O)NO , what IC50 is on record?
11.1

For the compound CC(C)(O/N=C(\C(=O)N[C@@H]1C(=O)N(S(=O)(=O)O)[C@@H]1CNC(=O)NCc1cc(=O)c(O)cn1O)c1csc(N)n1)C(=O)O , what IC50 is on record?
1.67

For the compound CC(C)(O/N=C(\C(=O)N[C@@H]1C(=O)N(S(=O)(=O)O)[C@@H]1CNC(=O)c1cc(=O)c(O)cn1-c1ccccc1)c1csc(N)n1)C(=O)O , what IC50 is on record?
7.4

For the compound CC(C)(O/N=C(\C(=O)N[C@@H]1C(=O)N(S(=O)(=O)[O-])[C@@H]1CNC(=O)c1cc(-c2cc(=O)c(O)cn2O)no1)c1csc(N)n1)C(=O)[O-].[Na+].[Na+] , what IC50 is on record?
0.15

----------
System: Acinetobacter baumannii
Test: Antibacterial activity against Acinetobacter baumannii AB-3167 by broth microdilution method
Type: functional
MIC by entry:
Kindly provide the numeric value in µg/mL only, without the unit symbol.

NCCO/N=C(\C(=O)N[C@@H]1C(=O)N(S(=O)(=O)O)[C@@H]1CNC(=O)NCc1cc(=O)c(O)cn1O)c1csc(N)n1 | 4
CC(C)(O/N=C(\C(=O)N[C@@H]1C(=O)N(S(=O)(=O)O)[C@@H]1CNC(=O)NCc1cc(=O)c(O)cn1O)c1csc(N)n1)C(=O)NO | 1
C[C@H]1[C@H](NC(=O)/C(=N\OC(C)(C)C(=O)O)c2csc(N)n2)C(=O)N1S(=O)(=O)O [AZTREONAM] | 4
Nc1nc(/C(=N/Oc2ccccc2)C(=O)N[C@@H]2C(=O)N(S(=O)(=O)O)[C@@H]2CNC(=O)NCc2cc(=O)c(O)cn2O)cs1 | 0.5
CC(C)(O/N=C(\C(=O)N[C@@H]1C(=O)N(S(=O)(=O)[O-])[C@@H]1CNC(=O)c1cc(-c2cc(=O)c(O)cn2O)no1)c1csc(N)n1)C(=O)[O-].[Na+].[Na+] | 0.125

Note: attention shifts to another entry.
For the compound NCC[C@H](O)C(=O)N[C@@H]1C[C@H](N)[C@@H](O[C@H]2O[C@H](CN)[C@@H](O)[C@H](O)[C@H]2O)[C@H](O)[C@H]1O[C@H]1O[C@H](CO)[C@@H](O)[C@H](N)[C@H]1O [AMIKACIN] , what MIC is on record?
1
